// data source = PubChem BioAssay (NCI)

Tested on: COLO 205 colon
run_description: NCI-60 one-dose screen, 48 h (100 = growth as untreated, 0 = no growth, -100 = all killed)
experimental_parameters: 10 µM unless noted
Compounds without any hit were thinned out: in the full panel of roughly 83,000, 20% have a hit.

# compound, growth / %
data = [
    ("C=CCn1c(SCC(=O)Nc2ccc(C(=O)/C=C/c3cc(OC)c(OC)c(OC)c3)cc2)nnc1-c1cc(-c2ccc(S(C)(=O)=O)cc2)nc2ccccc12", 111),
    ("COc1ccc(C(=O)/C=C/c2c(OC)cc(OC)cc2OC)c(OC)c1", 8.18),
    ("O=C(O)c1ccc[n+](CC(=O)N2CCN(c3cc4c(cc3F)c(=O)c(C(=O)O)cn4C3CC3)CC2)c1", 45.4),
    ("NC(=O)c1cccc(-c2cc(C(N)=O)ccc2Cl)c1", 33.5),
    ("CC(C)NC(=O)N1C(=O)CCC1NNC(=O)c1ccc([N+](=O)[O-])cc1 (configuration not stated)", 112),
    ("Cc1ccc(C2CC(c3cccc(Nc4ccncc4)c3)=NN2c2cc(Cl)cc(Cl)c2)cc1 (configuration not stated)", -43.1),
    ("C=C1C(=O)O[C@H]2[C@H]1CC/C(COC(=O)CCCc1c[nH]c3ccccc13)=C\\CC[C@@]1(C)O[C@@H]21", 64.8),
    ("Clc1ccc(N2N=C(c3cccc(Nc4ccncc4)c3)CC2c2ccccc2)cc1 (configuration not stated)", 73.1),
    ("C=C(C)[C@@H]1CC[C@]2(C=O)CC[C@]3(C)[C@H](CC[C@@H]4[C@@]5(C)CCCNC(C)(C)[C@@H]5CC[C@]43C)[C@@H]12", -78.8),
    ("COc1cccc(CCC(=O)c2cc3c(N)c(C(=O)Nc4cccc(Cl)c4C)sc3nc2C)c1", 7.16),
    ("Cn1c(COC(=O)N2CCCCC2)nc2c(N3CCOCC3)nc(-c3ccccc3)nc21", -60.2),
    ("C=C1C(=O)O[C@H]2[C@H]1CC/C(COC(=O)CCCCCC(=O)OC/C1=C/CC[C@@]3(C)O[C@H]3[C@H]3OC(=O)C(=C)[C@@H]3CC1)=C\\CC[C@@]1(C)O[C@@H]21", -38.4),
    ("C=C(C)[C@@H]1CC[C@]2(C(=O)NCC(=O)OC)CC[C@]3(C)[C@H](CC[C@@H]4[C@@]5(C)Cc6c([nH]c7ccccc67)C(C)(C)[C@@H]5CC[C@]43C)[C@@H]12", 86.1),
    ("Cc1cc(Nc2cccc(C(F)(F)F)c2)n2c(nc3ccccc32)c1C#N", 36.9),
    ("Clc1nc(Cl)c2ncn(CC3(Cn4cnc5c(Cl)nc(Cl)nc54)COC3)c2n1", -76.6),
    ("COc1ccc2c(c1)c(CC(=O)NCCOCCOCC(=O)Nc1ccc(OC)c(C(N)=O)c1O)c(C)n2C(=O)c1ccc(Cl)cc1", 109),
    ("CCC(=O)c1ccc(O)c(OC)c1", 120),
]
